test system: Rattus norvegicus; test: Compound administered perorally was evaluated for the conditioned avoidance response in rats; type: functional

COMPOUND | ED
Cn1cc2c(n1)Nc1ccc(F)cc1N=C2N1CCN(CC2CC2)CC1 | >15 mg/kg
Cn1cc2c(n1)Nc1ccc(F)cc1N=C2N1CCNCC1 | >50 mg/kg
CN1CCN(C2=Nc3cc(Cl)ccc3Nc3nn(C)cc32)CC1 | 10 mg/kg
CN1CCN(C2=Nc3c(Cl)cccc3Nc3nn(C)cc32)CC1 | >50 mg/kg
Cn1cc2c(n1)Nc1ccc(F)cc1N=C2N1CCN(Cc2ccccc2)CC1 | >50 mg/kg
CN1CCN(C2=Nc3cc(F)ccc3Nc3nn(Cc4ccccc4)cc32)CC1 | 50 mg/kg
Cc1c2c(nn1C)Nc1ccc(F)cc1N=C2N1CCN(C)CC1 | >50 mg/kg
CN1CCN(C2=Nc3cccc(Cl)c3Nc3nn(C)cc32)CC1 | >50 mg/kg
Cn1cc2c(n1)Nc1ccc(F)cc1N=C2N1CCN(CCO)CC1 | >50 mg/kg
CN1CCN(C2=Nc3cc(F)ccc3Nc3nn(-c4ccccc4)cc32)CC1 | 50 mg/kg
CN1CCN(C2=Nc3cc(Cl)ccc3Nc3ccccc32)CC1 [CLOZAPINE] | 30 mg/kg

# credit: ChEMBL document CHEMBL1124378
